- method.description: Pharmacokinetic analyses in mice (PO suspension, IV, SC)
- Format: in vivo, mouse
- test.context: mouse, in vivo, iv, 10 mg/kg, IV (10 mg/kg), 4 hrs, individual animals; read-out: MBX 4132 Concentrations in Mouse Plasma
measurement.label: concentration at 4 h
The number alone won't do; follow it with the unit.

Quick note, concentration at 4 h for O=C(Nc1nnc(-c2ccc(F)cc2)o1)N1CCc2ccccc2C1 [MBX 4132] landed at 7790 ng/mL

---

- method.description: Multiplexed cytotoxicity assay (nuclei, ROS, TMRE)
- Format: cell-based, human
- test.context: human, human primary hepatocytes, 3.17E+00 μM; read-out: Mean MMP inhibition (fold induction)
measurement.label: fold induction at 24 h, 3.17 μM
// return a plain number; no unit text

Quick note, fold induction at 24 h, 3.17 μM for O=C(Nc1nnc(-c2ccc(F)cc2)o1)N1CCc2ccccc2C1 landed at 1

---

- method.description: Pharmacokinetic analyses in mice (PO suspension, IV, SC)
- Assay type: in vivo, mouse
- test.context: female, CD-1, mouse, in vivo, sc, 10 mg/kg, SC (10 mg/kg), 1 hrs, individual animals; read-out: MBX 4132 Concentrations in Mouse Plasma
measurement.label: concentration at 1 h (ng/mL)
Answer with a number only, understood to be in ng/mL.

Quick note, concentration at 1 h for O=C(Nc1nnc(-c2ccc(F)cc2)o1)N1CCc2ccccc2C1 [MBX 4132] landed at 3480

---

- method.description: Pharmacokinetic analyses in mice (PO suspension, IV, SC)
- Type: in vivo, mouse
- test.context: female, CD-1, mouse, in vivo, sc, 10 mg/kg, SC (10 mg/kg), 4 hrs, mean of 3 animals; read-out: MBX 4132 Concentrations in Mouse Plasma, Mean
measurement.label: concentration at 4 h (ng/mL)
Answer with a number only, understood to be in ng/mL.

Quick note, concentration at 4 h for O=C(Nc1nnc(-c2ccc(F)cc2)o1)N1CCc2ccccc2C1 landed at 2850

---

- method.description: Pharmacokinetic analyses in mice (PO suspension, IV, SC)
- Format: in vivo, mouse
- test.context: female, CD-1, mouse, in vivo, sc, 25 mg/kg, SC (25 mg/kg), 0.5 hrs, mean of 3 animals; read-out: MBX 4132 Concentrations in Mouse Plasma, Mean
measurement.label: concentration at 0.5 h (ng/mL)
Answer with a number only, understood to be in ng/mL.

Quick note, concentration at 0.5 h for O=C(Nc1nnc(-c2ccc(F)cc2)o1)N1CCc2ccccc2C1 [MBX 4132] landed at 5010

---

- method.description: Multiplexed cytotoxicity assay (nuclei, ROS, TMRE)
- Format: cell-based, human
- test.context: human, human primary hepatocytes, 3.18E-02 μM; read-out: Mean ROS (fold induction)
- Experimental: Multiplexed cytotoxicity assay — Human primary hepatocytes were grown on collagen I coated optical plates, cultured in hepatocytes culture media in a humidified 5% CO2 atmosphere at 37 °C. […]
measurement.label: fold induction at 24 h, 0.0318 μM
// return a plain number; no unit text

Quick note, fold induction at 24 h, 0.0318 μM for O=C(Nc1nnc(-c2ccc(F)cc2)o1)N1CCc2ccccc2C1 landed at 0.9

---

- method.description: Multiplexed cytotoxicity assay (nuclei, ROS, TMRE)
- Assay type: cell-based, human
- test.context: human, human primary hepatocytes, 1.00E+01 μM; read-out: Mean MMP inhibition (fold induction)
measurement.label: fold induction at 24 h, 10 μM
// return a plain number; no unit text

Quick note, fold induction at 24 h, 10 μM for O=C(Nc1nnc(-c2ccc(F)cc2)o1)N1CCc2ccccc2C1 landed at 1.1
